Data origin: patent US9458202B2

# method-notes: Figure 2
# measurement-context: Sprague-Dawley, rat, plasma, iv; read-out: MRTinf_obs
property-name: MRT

Look up MRT for this substance: Ac-QSQQTFSNLWRLLPQN-NH2 [*SP22] < 6 min

* * *

Give measured MRT for each item. Keep answers brief.
# method-notes: Figure 2
# measurement-context: Sprague-Dawley, rat, plasma, iv; read-out: MRTinf_obs
# Method: Table printed on a drawing sheet, Figure 2 Footnotes: 2 mg/mL iv bolus in Sprague-Dawley rats (10 mg/kg) / * 0.6 mg/mL iv bolus in Sprague-Dawley rats (3 mg/kg) The patent's description of the figure: FIG. 2 lists the in vivo half-lives of peptidomimetic macrocycles of the invention. Half-lives were measured in Sprague Dawley rats after one intravenous bolus injection at 0.6 mg/mL or 2 mg/mL of each unlabeled peptidomimetic macrocycle at a 3 mg/kg or 10 mg/kg dose, respectively. […]
One number for each entry, in h.

CCCC[C@H](NC(=O)[C@]1(C)CCCC=CCCC[C@](C)(NC(=O)[C@H](C)NC(=O)[C@H](CC(C)C)NC(=O)[C@]2(C)CCCC=CCCCCC(=O)N[C@@H]([C@@H](C)CC)C(=O)N[C@@H](C)C(=O)N[C@@H](CCCNC(=N)N)C(=O)N2)C(=O)N[C@@H](C(C)C)C(=O)NCC(=O)N[C@@H](CC(=O)O)C(=O)N1)C(=O)N[C@@H](CC(=O)O)C(=O)N[C@@H](CCCNC(=N)N)C(=O)N[C@@H](CO)C(=O)N[C@H](C(N)=O)[C@@H](C)CC ... 9.2

Next item in the queue.
Look up MRT for this compound: CC(=O)N[C@@H](CCC(N)=O)C(=O)N[C@@H](CO)C(=O)N[C@@]1(C)CCCC=CCCCC2(CCCC=CCCCCCC[C@@](C)(C(=O)N[C@@H](CCC(N)=O)C(=O)N[C@@H](CC(N)=O)C(N)=O)NC(=O)[C@H](CC(C)C)NC(=O)[C@H](CC(C)C)NC(=O)[C@H](CCCNC(=N)N)NC(=O)[C@H](Cc3c[nH]c4ccccc34)NC(=O)[C@H](CC(C)C)NC(=O)[C@H](CC(N)=O)NC2=O)NC(=O)[C@H](Cc2ccccc2)NC(=O)[C@H]([C@@H](C)O)NC(=O)[C@H](CCC(N)=O)NC1=O (some centres unmarked) 3

* * *

# method-notes: Figure 2
# measurement-context: Sprague-Dawley, rat, plasma, iv
property-name: C0 (ng/mL)
One number for each entry, in ng/mL.

Look up C0 for this substance: Ac-QSQQTFSNLWRLLPQN-NH2 [*SP22] 15100
